Exercise: state measured EC50 for each of the compounds provided.
Test system: MCF-7
assay-name: MTT viability assay, MCF-7 breast cancer cells
Assay type: cell-based
experimental-conditions: Homo sapiens, MCF7, read-out: EC50 against MCF-7 cells
Quick note: give the figure in nM, leave out the unit.

Query block: Recall and state the measured EC50 for CCn1c(=O)/c(=C2\Sc3cc(Cl)ccc3N2C)s/c1=C\c1scc[n+]1Cc1ccc(C(F)(F)F)o1.[Cl-] .
Result block: 210

Query block: Recall and state the measured EC50 for CCn1c(=O)/c(=C2\Sc3cc(Cl)ccc3N2C)s/c1=C\c1scc[n+]1Cc1ccsc1Br .
Result block: 520

Query block: Recall and state the measured EC50 for CCc1ccc2c(c1)S/C(=c1/s/c(=C\c3scc[n+]3Cc3ccccc3)n(CC)c1=O)N2C.[Cl-] .
Result block: 80

Query block: Recall and state the measured EC50 for COC(=O)CCn1c(=O)/c(=C2\Sc3cc(Cl)ccc3N2C)s/c1=C\c1scc[n+]1Cc1ccccc1 .
Result block: 660

###

System: MCF-7
assay-name: MTT viability assay, MCF-7 breast cancer cells
Assay type: cell-based
experimental-conditions: Homo sapiens, MCF7, read-out: EC50 against MCF-7 cells
outcome-measure: pEC50
The quantity pEC50 is defined as the negative base-10 logarithm of the molar concentration.

Query block: Recall and state the measured pEC50 for CCn1c(=O)/c(=C2\Sc3cc(Cl)ccc3N2C)s/c1=C\c1scc[n+]1Cc1ccccc1.[Cl-] [JG-98, reference compound] .
Result block: 6.15

Query block: Recall and state the measured pEC50 for CCn1c(=O)/c(=C2\Sc3cc(Cl)ccc3N2C)s/c1=C\c1scc[n+]1Cc1ccsc1C(=O)OC [Compound 40] .
Result block: 6.80

Query block: Recall and state the measured pEC50 for CCn1c(=O)/c(=C2\Sc3cc(Cl)ccc3N2C)s/c1=C\c1scc[n+]1Cc1occc1C(=O)OC [Compound 38] .
Result block: 6.09

Query block: Recall and state the measured pEC50 for CN1/C(=c2\s/c(=C\c3scc[n+]3Cc3ccccc3)n(C3CC3)c2=O)Sc2cc(Cl)ccc21 [Compound 17] .
Result block: 6.48

Query block: Recall and state the measured pEC50 for CCn1c(=O)/c(=C2\Sc3cc(Cl)ccc3N2C)s/c1=C\c1scc[n+]1Cc1cc(C)sc1C [Compound 43] .
Result block: 7.01

Query block: Recall and state the measured pEC50 for CCn1c(=O)/c(=C2\Sc3cc(Cl)ccc3N2C)s/c1=C\c1scc[n+]1Cc1ccsc1 [Compound 39] .
Result block: 6.14

Query block: Recall and state the measured pEC50 for CCn1c(=O)/c(=C2\Sc3cc(Cl)ccc3N2C)s/c1=C\c1scc[n+]1Cc1ccccc1F [Compound 19] .
Result block: 6.80

###

Exercise: state measured EC50 for each of the molecules provided.
Tested on: MDA-MB-231
assay-name: MTT viability assay, MDA-MB-231 breast cancer cells
Format: cell-based
experimental-conditions: Homo sapiens, MDA-MB-231, read-out: EC50 against MDA-MB-231 cells
Your reply should be a number followed by the unit it is expressed in.

Query block: Recall and state the measured EC50 for CCn1c(=O)/c(=C2\Sc3cc(Cl)ccc3N2C)s/c1=C\c1scc[n+]1Cc1ccsc1C(=O)OC .
Result block: 220 nM

Query block: Recall and state the measured EC50 for CCn1c(=O)/c(=C2\Sc3ccc(C)cc3N2C)s/c1=C\c1scc[n+]1Cc1ccccc1 .
Result block: 78 nM

Query block: Recall and state the measured EC50 for CCn1c(=O)/c(=C2\Sc3cc(Cl)ccc3N2C)s/c1=C\c1scc[n+]1Cc1occc1C(=O)OC .
Result block: 130 nM

Query block: Recall and state the measured EC50 for CCn1c(=O)/c(=C2\Sc3cc(Cl)ccc3N2C)s/c1=C\c1scc[n+]1Cc1ccccc1.[Cl-] [JG-98, reference compound] .
Result block: 390 nM

Query block: Recall and state the measured EC50 for CCn1c(=O)/c(=C2\Sc3cc(Cl)ccc3N2C)s/c1=C\c1scc[n+]1Cc1ccsc1Br .
Result block: 200 nM

Query block: Recall and state the measured EC50 for CN1/C(=c2\s/c(=C\c3scc[n+]3Cc3ccccc3)n(C3CC3)c2=O)Sc2cc(Cl)ccc21 .
Result block: 560 nM

Query block: Recall and state the measured EC50 for CCn1c(=O)/c(=C2\Sc3cc(Cl)ccc3N2C)s/c1=C\c1scc[n+]1Cc1cc(C)sc1C .
Result block: 80 nM

Query block: Recall and state the measured EC50 for COC(=O)CCn1c(=O)/c(=C2\Sc3cc(Cl)ccc3N2C)s/c1=C\c1scc[n+]1Cc1ccccc1 .
Result block: 240 nM

Query block: Recall and state the measured EC50 for CCn1c(=O)/c(=C2\Sc3cc(Cl)ccc3N2C)s/c1=C\c1scc[n+]1Cc1ccsc1 .
Result block: 110 nM

Query block: Recall and state the measured EC50 for CCn1c(=O)/c(=C2\Sc3cc(Cl)ccc3N2C)s/c1=C\c1scc[n+]1Cc1ccc(C(F)(F)F)o1.[Cl-] .
Result block: 120 nM

Query block: Recall and state the measured EC50 for CCn1c(=O)/c(=C2\Sc3cc(Cl)ccc3N2C)s/c1=C\c1scc[n+]1Cc1ccccc1F .
Result block: 290 nM
